- Test system: rat bladder strip
- TEST DESCRIPTION: in vitro rat bladder strip model: inhibition of 10 μM carbachol induced contraction
- CONDITION INFO: 1 h; test compound at 3 μM, one hour incubation; 10 μM carbachol induced contraction of rat bladder strip; percent inhibition over controls, normalized for vehicle effects
Listed here: items and their measured inhibition at 3 µM.

As a guide, the following entries are already answered.
> print(dat)
                                   compound    measurement.kind  value.reported
1  O=c1[nH]c(-c2ccc(Cl)s2)nn1-c1cc(F)ccc1O [Example 32]  inhibition at 3 µM       35 to 50%
2  O=c1[nH]c(-c2ccc(Br)s2)nn1-c1cc(Br)ccc1O [Example 27]  inhibition at 3 µM       35 to 50%
3  O=c1[nH]c(-c2sc(Cl)c(Cl)c2Cl)nn1-c1cc(Cl)ccc1O [Example 16]  inhibition at 3 µM       20 to 35%

Request: Could you please provide reported inhibition at 3 µM for C=CCc1cc(Cl)cc(-n2nc(-c3ccc(Br)s3)[nH]c2=O)c1O [Example 20] ? Thanks!
Response: 20 to 35%

Request: Could you please provide reported inhibition at 3 µM for O=c1[nH]c(-c2ccc(Br)s2)nn1-c1cc(Cl)cc(Br)c1O [Example 21] ? Thanks!
Response: 20 to 35%

Request: Could you please provide reported inhibition at 3 µM for Cc1cc(Cl)cc(-n2nc(-c3ccc(Br)s3)[nH]c2=O)c1O [Example 22] ? Thanks!
Response: 20 to 35%

* * *

- Tested on: rat bladder strip
- TEST DESCRIPTION: in vitro rat bladder strip model: inhibition of 10 μM carbachol induced contraction
- CONDITION INFO: 1 h; test compound at 3 μM, one hour incubation; 10 μM carbachol induced contraction of rat bladder strip; percent inhibition over controls, normalized for vehicle effects
Listed here: items and their measured inhibition at 3 µM.

As a guide, the following entries are already answered.
> print(dat)
                    structure.smiles.string  value.reported
1    O=c1[nH]c(-c2sccc2Cl)nn1-c1cc(Cl)ccc1O       35 to 50%
2  O=c1[nH]c(-c2scc(Br)c2Br)nn1-c1cc(Cl)ccc1O       20 to 35%
3  O=c1[nH]c(-c2cc(Br)cs2)nn1-c1cc(Cl)ccc1O       35 to 50%
4  CCCc1cc(Cl)cc(-n2nc(-c3cccs3)[nH]c2=O)c1O       20 to 35%
5  O=c1[nH]c(-c2ccc(Cl)s2)nn1-c1cc(Cl)ccc1O       35 to 50%
6  Cc1cc(O)c(-n2nc(-c3ccc(Br)s3)[nH]c2=O)cc1Cl       20 to 35%
7    O=c1[nH]c(-c2sccc2Br)nn1-c1cc(Cl)ccc1O       35 to 50%
8  O=c1[nH]c(-c2cc(Cl)c(Cl)s2)nn1-c1cc(Cl)ccc1O       20 to 35%

Switching to the query record.
Request: Could you please provide reported inhibition at 3 µM for `O=c1[nH]c(-c2sccc2I)nn1-c1cc(Cl)ccc1O` ? Thanks!
Response: 20 to 35%

* * *

- Tested on: rat bladder strip
- TEST DESCRIPTION: in vitro rat bladder strip model: inhibition of 10 μM carbachol induced contraction
- CONDITION INFO: 1 h; test compound at 3 μM, one hour incubation; 10 μM carbachol induced contraction of rat bladder strip; percent inhibition over controls, normalized for vehicle effects
Listed here: items and their measured inhibition at 3 µM.

As a guide, the following entries are already answered.
> print(dat)
                                   compound  target.or.test.system    measurement.kind  value.reported
1  O=c1[nH]c(-c2ccc(Br)s2)nn1-c1cc(Cl)c(Br)cc1O [Example 25]      rat bladder strip  inhibition at 3 µM       20 to 35%
2  O=c1[nH]c(-c2ccc(Br)s2)nn1-c1cc(F)ccc1O [Example 28]      rat bladder strip  inhibition at 3 µM       20 to 35%
3  O=c1[nH]c(-c2ccc(Br)s2)nn1-c1cc(C(F)(F)F)ccc1O [Example 26]      rat bladder strip  inhibition at 3 µM       35 to 50%

Request: Could you please provide reported inhibition at 3 µM for O=c1[nH]c(-c2sc(Br)cc2Br)nn1-c1cc(Cl)ccc1O [Example 14] ? Thanks!
Response: 35 to 50%
